These entries and their values trace back to patent US12697277B2.

# MEASUREMENT PROTOCOL: NO2 adsorption by raw active and film, fixed bed reactor
# Type: physicochemical
# CONDITIONS: raw active, 250 mg, 22° C., 505 ppm of NO2
I'd be grateful if you could share measured NO2 Adsorbed Amount for these entries.
Numbers only, in mg/g.

Some solved entries appear below for comparison.
{"COMPOUND": "O=C1O[C@H]([C@@H](O)CO)C(O)=C1O [Ascorbic Acid, L-ascorbic acid]", "MEASURE UNIT": "mg/g", "NO2 Adsorbed Amount": 2.50}
{"COMPOUND": "O=C([O-])[O-].[Ca+2] [Calcium Carbonate]", "MEASURE UNIT": "mg/g", "NO2 Adsorbed Amount": 7.75}

Item OC[C@H]1O[C@@H]2O[C@H]3[C@H](O)[C@@H](O)[C@@H](O[C@H]4[C@H](O)[C@@H](O)[C@@H](O[C@H]5[C@H](O)[C@@H](O)[C@@H](O[C@H]6[C@H](O)[C@@H](O)[C@@H](O[C@H]7[C@H](O)[C@@H](O)[C@@H](O[C@H]8[C@H](O)[C@@H](O)[C@@H](O[C@H]1[C@H](O)[C@H]2O)O[C@@H]8CO)O[C@@H]7CO)O[C@@H]6CO)O[C@@H]5CO)O[C@@H]4CO)O[C@@H]3CO [Beta Cyclodextrin Powder, Beta Cyclodextrin] : provide NO2 Adsorbed Amount
2.96

---

# MEASUREMENT PROTOCOL: NO2 adsorption by raw active and film, fixed bed reactor
# Format: physicochemical
# CONDITIONS: raw active, 250 mg, 22° C., 505 ppm of NO2
READOUT NAME: NO2 Adsorbed Amount (mg/g)
Give bare numbers, in mg/g.

{"COMPOUND": "O=C([O-])O.[Na+] [Sodium Bicarbonate]", "NO2 Adsorbed Amount / mg/g": 2.24}
{"COMPOUND": "COc1cc(/C=C/C(=O)O)ccc1O [Ferulic Acid]", "NO2 Adsorbed Amount / mg/g": 3.27}

Give me NO2 Adsorbed Amount for each of these compounds, listed below.
1. O=C([O-])[O-].[Mg+2] [Magnesium Carbonate]
2. [Cl-].[Na+] [Sodium Chloride]

8.03
2.00

---

I'd be grateful if you could share measured NO Adsorbed Amount for these entries.
# MEASUREMENT PROTOCOL: NO adsorption by raw active and film, fixed bed reactor
# Assay type: physicochemical
# CONDITIONS: raw active, 250 mg, 22° C.
// unit must come after the numeric part

Some solved entries appear below for comparison.
{"COMPOUND": "O=C([O-])[O-].[Ca+2] [Calcium Carbonate]", "NO Adsorbed Amount": "0.15 mg/g"}
{"COMPOUND": "[Cl-].[Na+] [Sodium Chloride]", "NO Adsorbed Amount": "0.34 mg/g"}
{"COMPOUND": "O=C1O[C@H]([C@@H](O)CO)C(O)=C1O [Ascorbic Acid, L-ascorbic acid]", "NO Adsorbed Amount": "0.14 mg/g"}

Item O=C([O-])O.[Na+] [Sodium Bicarbonate] : provide NO Adsorbed Amount
0.14 mg/g
